Biological target: SOST
Experiment: reporter assay of Huesken 2005; further: test concentration or dose not given here
Conditions: siRNA
Oligonucleotides are given in HELM: sugar(base)linkage, 5' to 3'; d 2'-deoxyribose, r ribose, m 2'-O-methylribose, p phosphate. ss, as = sense and antisense strand
This section presents substances with their documented normalised inhibition (eCFP-eYFP dual reporter) values.
parameter_measured: normalised inhibition (eCFP-eYFP dual reporter) (%)

{"substance": "RNA1{r(C)p.r(U)p.r(C)p.r(G)p.r(G)p.r(A)p.r(G)p.r(A)p.r(G)p.r(U)p.r(A)p.r(C)p.r(C)p.r(C)p.r(C)p.r(G)p.r(A)p.r(G)p.r(C)p.d(T)p.d(T)}|RNA2{r(G)p.r(C)p.r(U)p.r(C)p.r(G)p.r(G)p.r(G)p.r(G)p.r(U)p.r(A)p.r(C)p.r(U)p.r(C)p.r(U)p.r(C)p.r(C)p.r(G)p.r(A)p.r(G)p.d(C)p.d(T)}$$$RNA1{StrandType:ss}|RNA2{StrandType:as}$", "experimental_result": 44.4}
{"substance": "RNA1{r(G)p.r(U)p.r(G)p.r(G)p.r(U)p.r(G)p.r(A)p.r(G)p.r(G)p.r(C)p.r(G)p.r(C)p.r(C)p.r(G)p.r(C)p.r(G)p.r(C)p.r(G)p.r(C)p.d(T)p.d(T)}|RNA2{r(G)p.r(C)p.r(G)p.r(C)p.r(G)p.r(C)p.r(G)p.r(G)p.r(C)p.r(G)p.r(C)p.r(C)p.r(U)p.r(C)p.r(A)p.r(C)p.r(C)p.r(A)p.r(C)p.d(C)p.d(G)}$$$RNA1{StrandType:ss}|RNA2{StrandType:as}$", "experimental_result": 65.2}
{"substance": "RNA1{r(C)p.r(C)p.r(A)p.r(C)p.r(A)p.r(A)p.r(C)p.r(C)p.r(A)p.r(G)p.r(U)p.r(C)p.r(G)p.r(G)p.r(A)p.r(G)p.r(C)p.r(U)p.r(C)p.d(T)p.d(T)}|RNA2{r(G)p.r(A)p.r(G)p.r(C)p.r(U)p.r(C)p.r(C)p.r(G)p.r(A)p.r(C)p.r(U)p.r(G)p.r(G)p.r(U)p.r(U)p.r(G)p.r(U)p.r(G)p.r(G)p.d(A)p.d(A)}$$$RNA1{StrandType:ss}|RNA2{StrandType:as}$", "experimental_result": 80.8}

====

Test: reporter assay of Huesken 2005
Conditions: siRNA
Oligonucleotides are written 5' to 3', each unit as a sugar letter and its base; * is a phosphorothioate linkage, no mark a phosphodiester; rarer units and linkages stand in square brackets, end groups in braces. Plain capitals give the bases only. d = 2'-deoxy (DNA); r = 2'-OH (RNA)
parameter_measured: normalised inhibition (eCFP-eYFP dual reporter) (%)

{"substance": "sense rGrGrCrUrUrUrGrGrArGrCrCrCrUrUrCrUrGrCdTdT / antisense rGrCrArGrArArGrGrGrCrUrCrCrArArArGrCrCdTdA", "unit_abbrev": "%", "experimental_result": 73.7}
{"substance": "sense rUrGrArGrArCrUrUrCrCrArUrCrUrCrUrArGrCdTdT / antisense rGrCrUrArGrArGrArUrGrGrArArGrUrCrUrCrAdGdA", "unit_abbrev": "%", "experimental_result": 32.9}
{"substance": "sense rArArGrArArArCrUrUrGrCrUrCrCrArGrArUrUdTdT / antisense rArArUrCrUrGrGrArGrCrArArGrUrUrUrCrUrUdCdT", "unit_abbrev": "%", "experimental_result": 79}
{"substance": "sense rCrUrCrUrCrUrGrCrCrArCrArUrGrGrUrGrUrGdTdT / antisense rCrArCrArCrCrArUrGrUrGrGrCrArGrArGrArGdAdC", "unit_abbrev": "%", "experimental_result": 46.7}
{"substance": "sense rCrCrArGrGrGrGrArCrArGrGrCrArGrCrArGrGdTdT / antisense rCrCrUrGrCrUrGrCrCrUrGrUrCrCrCrCrUrGrGdGdC", "unit_abbrev": "%", "experimental_result": 45.6}
{"substance": "sense rGrArUrUrCrCrArCrCrArGrUrUrUrArGrArArGdTdT / antisense rCrUrUrCrUrArArArCrUrGrGrUrGrGrArArUrCdTdG", "unit_abbrev": "%", "experimental_result": 84}
{"substance": "sense rArCrCrCrUrUrUrArCrArGrArArCrArCrCrCrAdTdT / antisense rUrGrGrGrUrGrUrUrCrUrGrUrArArArGrGrGrUdGdG", "unit_abbrev": "%", "experimental_result": 86.5}
{"substance": "sense rGrCrCrUrUrCrArUrCrCrArCrCrUrUrCrCrCrUdTdT / antisense rArGrGrGrArArGrGrUrGrGrArUrGrArArGrGrCdAdG", "unit_abbrev": "%", "experimental_result": 85.7}
{"substance": "sense rGrArGrArGrArGrCrArArCrArGrGrGrUrArUrGdTdT / antisense rCrArUrArCrCrCrUrGrUrUrGrCrUrCrUrCrUrCdCdC", "unit_abbrev": "%", "experimental_result": 85.5}
{"substance": "sense rGrArUrUrUrArGrGrCrUrUrGrArGrGrGrArGrAdTdT / antisense rUrCrUrCrCrCrUrCrArArGrCrCrUrArArArUrCdCdA", "unit_abbrev": "%", "experimental_result": 90.8}
{"substance": "sense rGrGrUrGrGrCrUrCrUrGrUrCrUrCrUrCrUrGrCdTdT / antisense rGrCrArGrArGrArGrArCrArGrArGrCrCrArCrCdGdG", "unit_abbrev": "%", "experimental_result": 71.5}
{"substance": "sense rGrGrCrUrCrUrGrUrCrUrCrUrCrUrGrCrCrArCdTdT / antisense rGrUrGrGrCrArGrArGrArGrArCrArGrArGrCrCdAdC", "unit_abbrev": "%", "experimental_result": 45.8}
{"substance": "sense rCrCrArGrArGrUrGrGrArArArCrUrCrArCrArCdTdT / antisense rGrUrGrUrGrArGrUrUrUrCrCrArCrUrCrUrGrGdTdG", "unit_abbrev": "%", "experimental_result": 95.3}
{"substance": "sense rCrArGrGrGrGrCrArGrCrGrGrGrArGrArGrArGdTdT / antisense rCrUrCrUrCrUrCrCrCrGrCrUrGrCrCrCrCrUrGdAdA", "unit_abbrev": "%", "experimental_result": 66.2}
{"substance": "sense rUrUrGrCrUrCrUrCrUrGrGrArGrUrCrUrCrCrCdTdT / antisense rGrGrGrArGrArCrUrCrCrArGrArGrArGrCrArAdGdA", "unit_abbrev": "%", "experimental_result": 58.4}
{"substance": "sense rGrGrCrArGrArCrUrArCrArGrUrUrUrCrUrUrUdTdT / antisense rArArArGrArArArCrUrGrUrArGrUrCrUrGrCrCdAdG", "unit_abbrev": "%", "experimental_result": 86}
{"substance": "sense rGrUrCrGrUrUrCrGrUrGrGrUrCrGrUrUrUrCrAdTdT / antisense rUrGrArArArCrGrArCrCrArCrGrArArCrGrArCdCdA", "unit_abbrev": "%", "experimental_result": 39.3}
{"substance": "sense rUrCrCrCrCrUrGrCrCrUrGrUrCrArGrGrGrGrUdTdT / antisense rArCrCrCrCrUrGrArCrArGrGrCrArGrGrGrGrAdAdA", "unit_abbrev": "%", "experimental_result": 42.2}
{"substance": "sense rGrGrCrArGrCrGrGrGrArGrArGrArGrCrArArCdTdT / antisense rGrUrUrGrCrUrCrUrCrUrCrCrCrGrCrUrGrCrCdCdC", "unit_abbrev": "%", "experimental_result": 61.9}
{"substance": "sense rCrArArUrCrCrGrCrCrCrCrArCrCrCrUrUrUrAdTdT / antisense rUrArArArGrGrGrUrGrGrGrGrCrGrGrArUrUrGdGdG", "unit_abbrev": "%", "experimental_result": 80.2}
{"substance": "sense rArCrUrUrArArCrUrUrCrUrGrArGrCrArArUrAdTdT / antisense rUrArUrUrGrCrUrCrArGrArArGrUrUrArArGrUdAdA", "unit_abbrev": "%", "experimental_result": 90.7}
{"substance": "sense rArGrCrGrGrGrArGrArGrArGrCrArArCrArGrGdTdT / antisense rCrCrUrGrUrUrGrCrUrCrUrCrUrCrCrCrGrCrUdGdC", "unit_abbrev": "%", "experimental_result": 43.5}
{"substance": "sense rGrCrArArCrArGrGrGrUrArUrGrCrArCrArCrCdTdT / antisense rGrGrUrGrUrGrCrArUrArCrCrCrUrGrUrUrGrCdTdC", "unit_abbrev": "%", "experimental_result": 72.5}
{"substance": "sense rUrGrUrUrCrCrUrUrGrUrGrGrArCrUrCrUrGrAdTdT / antisense rUrCrArGrArGrUrCrCrArCrArArGrGrArArCrAdTdC", "unit_abbrev": "%", "experimental_result": 94.3}
